Measured Fold Change to Chimeric Ab, listed per entry for reference.
Subject of test: T1, human CD33 (human, UniProt P20138 18-259, limits assumed)
T1 construct: Human CD33 immobilized on the BLI sensor tip or the BIAcore C1 chip; also called Siglec-3
Method: SPR (BIAcore), Fab over CD33 on C1 chip
Enter your answer as a number in fold; do not include the unit.

Record excerpt, results attached:
AB-64.2 (antibody, V domains shown) VH: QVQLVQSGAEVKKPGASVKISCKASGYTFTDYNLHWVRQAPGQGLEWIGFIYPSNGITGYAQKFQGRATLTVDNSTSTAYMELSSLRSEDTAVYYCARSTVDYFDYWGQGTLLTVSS VL: DIVLTQSPDSLAVSLGERATINCRVSQDVSTSTYSYMHWYQQKPGQPPKLLIKYASNLESGVPDRFSGSGSGTDFTLTISSLQAEDVAVYYCQHSWEIPLTFGQGTKLEIK : 35.5
AB-64.4 (antibody, V domains shown) VH: QVQLVQSGAEVKKPGASVKISCKASGYTFTDYNLHWVRQAPGQGLEWIGFIYPSNGITGYAQKFQGRATLTVDNSTSTAYMELSSLRSEDTAVYYCARSDVDYFDYWGQGTLLTVSS VL: DIVLTQSPDSLAVSLGERATINCRASQDVSTSTYSYMHWYQQKPGQPPKLLIKYASYLESGVPDRFSGSGSGTDFTLTISSLQAEDVAVYYCEHSWEIPLTFGQGTKLEIK : 443
AB-64.1 (antibody, V domains shown) VH: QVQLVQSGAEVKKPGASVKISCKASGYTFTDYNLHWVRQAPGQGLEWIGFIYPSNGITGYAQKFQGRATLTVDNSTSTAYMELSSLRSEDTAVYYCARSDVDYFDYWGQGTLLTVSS VL: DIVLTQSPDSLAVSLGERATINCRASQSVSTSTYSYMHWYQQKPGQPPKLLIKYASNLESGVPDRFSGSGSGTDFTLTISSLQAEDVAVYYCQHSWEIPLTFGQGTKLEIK : 15.4
AB-64.6 (antibody, V domains shown) VH: QVQLVQSGAEVKKPGASVKISCKASGYTFTDYNYHWVRQAPGQGLEWIGFIYPSNGITGYAQKFQGRATLTVDNSTSTAYMELSSLRSEDTAVYYCARSDVDYFDYWGQGTLLTVSS VL: DIVLTQSPDSLAVSLGERATINCRASQDVSTSTYSYMHWYQQKPGQPPKLLIKYASFLESGVPDRFSGSGSGTDFTLTISSLQAEDVAVYYCQHSWEIPLTFGQGTKLEIK : 258

Please find the next binder below.
Query string: Which value of Fold Change to Chimeric Ab has been reported for AB-64.3 (antibody, V domains shown) VH: QVQLVQSGAEVKKPGASVKISCKASGYTFTDYNLHWVRQAPGQGLEWIGFIYPSNGITGYAEKFEGRATLTVDNSTSTAYMELSSLRSEDTAVYYCARSFVDYFDYWGQGTLLTVSS VL: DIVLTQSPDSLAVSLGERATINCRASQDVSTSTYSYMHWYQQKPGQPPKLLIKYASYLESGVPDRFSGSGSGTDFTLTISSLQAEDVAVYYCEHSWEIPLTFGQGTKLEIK in the records?
Result string: 303
